- Tested on: Leishmania donovani axenic amastigotes (strain MHOM/ET/67/L82)
- test protocol: L. donovani axenic amastigotes resazurin assay
- Type: cell-based
- settings: Leishmania donovani, read-out: L. donovani. axenic amastigotes [nM]
quantity kind: IC50
In your response, the unit should come after the numeric value.

Prompt line: Give Leishmania donovani axenic amastigotes (strain MHOM/ET/67/L82) IC50 for the following molecule: CCCCCCCCCCCCCCCCOP(=O)([O-])OCC[N+](C)(C)C
Response line: 483 nM
